All values here come from a melting point compilation (Tetko et al.; mined from patent text by program, amines drawn as free bases though some values may be those of a salt).

// reported melting point for each item listed

Past entries and their recorded results:
* Cc1cnc(Nc2nc(-c3ccccc3)nc3ccccc23)s1 | 215 to 216 °C
* Cc1nc(-n2cc(-c3ccccc3)nn2)sc1C(=O)NCc1ccccc1 | 175 to 178 °C
* CCCCNS(=O)(=O)C[C@@H](O)C(O)[C@@H](CC1CCCCC1)NC(=O)[C@@H](N)CC(C)C (relative stereo) | 99 to 109 °C
* CC(C)(C)NC(=O)[C@@H]1CCCN1C(=O)[C@@H](O)[C@H](Cc1ccccc1)NC(=O)[C@H](CC(N)=O)NC(=O)COC1CCC(NC(=O)OCc2ccccc2)CC1 (some centres undefined) | 109 to 114 °C
* CC(C)(c1ccccc1)n1nnc(-c2ccccc2-c2ccc(CO)cc2)n1 | 117 to 120 °C

Endpoint output: melting point of Cc1csc(-c2cc(-c3ccncc3)c3n(c2=O)CCCc2ccncc2-3)n1 . Value? 300 to 302 °C

Endpoint output: melting point of CN1C(=O)Cn2cc(C(=O)NCc3ccc(Cl)cc3)c(=O)c3cc(I)cc1c32 . Value? 278 to 283 °C

Endpoint output: melting point of O[C@@H](COc1cccc(-c2noc3ccsc23)c1)CN1CCN(c2ccccc2F)CC1 . Value? 96 to 99 °C

Endpoint output: melting point of O=S(=O)(Nc1ccccc1OCc1ccc2ccccc2n1)c1ccc(Cl)cc1 . Value? 129 to 130 °C

Endpoint output: melting point of CC(C)(C)c1csc(COc2cccc(C(=O)Nc3cc(CCCS(=O)(=O)c4ccc(Cl)cc4)ccc3OCC(N)=O)c2)n1 . Value? 147 to 148 °C

Endpoint output: melting point of c1ccc2c(c1)nc(Nc1ccc3cn[nH]c3c1)c1nc(C3CCCC3)[nH]c12 . Value? 235 to 236 °C

Endpoint output: melting point of CCOc1cc2c(cc1OCC)C1(CCC(C(=O)O)(C(=O)O)CC1)N(C(=O)OCc1ccccc1)CC2 . Value? 175 to 176 °C

* * *

// reported melting point for each item listed

Past entries and their recorded results:
- Cc1ccccc1C(=O)c1ccc(CC(=O)O)n1C: 133 to 135 °C
- CC(=Cc1ccc(F)cc1)CNC(=O)c1ccc(F)cc1: 107 to 109 °C
- CC1(C)Oc2ccc(C3=NNC(=O)CC3)cc2NC1=O: 251 to 254 °C
- CCCCOCCOc1ccc(-c2ccc3c(c2)C=C(C(=O)Nc2ccc(SCc4nncn4CC(C)C)cc2)CCN3CCC)cc1: 130 to 132 °C
- C[C@]1(COc2ccc(N3CCN(Cc4ccc(C(F)(F)F)cc4)CC3)cc2)Cn2cc([N+](=O)[O-])nc2O1: 206 to 207 °C

Endpoint output: melting point of COC(=O)N1C2=C(C(=O)CC(C)(C)C2)C(c2ccc([N+](=O)[O-])cc2)C2=C1CC(C)(C)CC2=O . Value? 189 to 190 °C

Endpoint output: melting point of CCN(C(=O)Nc1ccc(OC(F)(F)F)cc1)C1Cc2ccc(SC(C)(C)C(=O)O)cc2C1 (stereo not given) . Value? 73 to 77 °C

Endpoint output: melting point of O=C1CCc2ccc(OCCCCCl)cc2N1 . Value? 104 to 106 °C

Endpoint output: melting point of Cc1ccc(-c2c(NS(=O)(=O)c3ccc(C(C)(C)C)cc3)nc(NCCOC3CCCCO3)nc2OCCOc2ncc(Br)cn2)cc1 (stereo not given) . Value? 65 to 69 °C

Endpoint output: melting point of CCOC(=O)Cc1sc(Sc2cc(C(=O)OCC)nc(SC)n2)nc1C . Value? 69 to 71 °C

Endpoint output: melting point of O=c1ccn(-c2cccc(F)c2)nc1-c1ccnn1-c1ccccc1 . Value? 170 to 171 °C

Endpoint output: melting point of CCOC(=O)c1c(CN(CC)CC)nc2cc(OC)c(OC)cc2c1-c1ccc(OC)c(OC)c1 . Value? 130 to 131 °C
